// data source = patent US20210380703A1

Target: T1, human ACVR2A (human, UniProt P27037 20-135, limits assumed); also: test concentration or dose not given here
T1 construct: also called activin receptor, type II A
T1 sequence (P27037 20-135 limits assumed): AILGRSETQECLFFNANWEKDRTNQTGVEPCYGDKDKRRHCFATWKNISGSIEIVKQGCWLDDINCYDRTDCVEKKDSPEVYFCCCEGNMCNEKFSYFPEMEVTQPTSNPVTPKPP
Test: ELISA
READOUT TYPE: optical density (OD)
Answers are plain numbers, in OD.

| BINDER | READOUT TYPE | ASSAY RESULT |
| --- | --- | --- |
| 375_B10 (antibody, V domains shown, VH and VL only) VH: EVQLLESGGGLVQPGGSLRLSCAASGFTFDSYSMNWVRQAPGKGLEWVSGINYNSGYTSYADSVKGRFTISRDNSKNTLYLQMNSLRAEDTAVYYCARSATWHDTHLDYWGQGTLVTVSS VL: DIQMTQSPSSLSASVGDRVTITCRASQSILSYLNWYQQKPGKAPKLLIYAATSRHSGVPSRFSGSGSGTDFTLTISSLQPEDFATYYCQQSYDLPLTFGGGTKVEIK | optical density | 3.65 |
| 370_D07 (antibody, V domains shown, VH and VL only) VH: EVQLLESGGGLVQPGGSLRLSCAASGFTFSSYGMNWVRQAPGKGLEWVSNINYNSGYTGYADSVKGRFTISRDNSKNTLYLQMNSLRAEDTAVYYCARSATWHDTHLDYWGQGTLVTVSS VL: DIQMTQSPSSLSASVGDRVTITCRASQSILSYVNWYQQKPGKAPKLVIYAATSLASGVPSRFSGSGSGTDFTLTISSLQPEDFATYYCQQSYESPLTFGGGTKVEIK | optical density | 2.81 |

[ask] What value of measured optical density is listed for 374_A03 (antibody, V domains shown, VH and VL only) VH: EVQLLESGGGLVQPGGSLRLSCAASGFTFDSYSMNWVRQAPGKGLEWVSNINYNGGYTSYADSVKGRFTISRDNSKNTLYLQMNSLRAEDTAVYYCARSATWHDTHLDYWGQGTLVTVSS VL: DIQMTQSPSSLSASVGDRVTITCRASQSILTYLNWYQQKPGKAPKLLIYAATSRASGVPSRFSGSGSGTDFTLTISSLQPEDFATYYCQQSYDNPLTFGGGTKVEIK ?
[reply] 3.58
